# assayedSystem: CFTR (Homo sapiens, UniProt P13569, DEL508-508)
# Construct: endogenous in cells; host or cells: primary human bronchial epithelial cells from CF subjects (F508del/MF-HBE), differentiated at air-liquid interface
# Sequence (P13569 with tags, fused parts or gaps DEL508-508): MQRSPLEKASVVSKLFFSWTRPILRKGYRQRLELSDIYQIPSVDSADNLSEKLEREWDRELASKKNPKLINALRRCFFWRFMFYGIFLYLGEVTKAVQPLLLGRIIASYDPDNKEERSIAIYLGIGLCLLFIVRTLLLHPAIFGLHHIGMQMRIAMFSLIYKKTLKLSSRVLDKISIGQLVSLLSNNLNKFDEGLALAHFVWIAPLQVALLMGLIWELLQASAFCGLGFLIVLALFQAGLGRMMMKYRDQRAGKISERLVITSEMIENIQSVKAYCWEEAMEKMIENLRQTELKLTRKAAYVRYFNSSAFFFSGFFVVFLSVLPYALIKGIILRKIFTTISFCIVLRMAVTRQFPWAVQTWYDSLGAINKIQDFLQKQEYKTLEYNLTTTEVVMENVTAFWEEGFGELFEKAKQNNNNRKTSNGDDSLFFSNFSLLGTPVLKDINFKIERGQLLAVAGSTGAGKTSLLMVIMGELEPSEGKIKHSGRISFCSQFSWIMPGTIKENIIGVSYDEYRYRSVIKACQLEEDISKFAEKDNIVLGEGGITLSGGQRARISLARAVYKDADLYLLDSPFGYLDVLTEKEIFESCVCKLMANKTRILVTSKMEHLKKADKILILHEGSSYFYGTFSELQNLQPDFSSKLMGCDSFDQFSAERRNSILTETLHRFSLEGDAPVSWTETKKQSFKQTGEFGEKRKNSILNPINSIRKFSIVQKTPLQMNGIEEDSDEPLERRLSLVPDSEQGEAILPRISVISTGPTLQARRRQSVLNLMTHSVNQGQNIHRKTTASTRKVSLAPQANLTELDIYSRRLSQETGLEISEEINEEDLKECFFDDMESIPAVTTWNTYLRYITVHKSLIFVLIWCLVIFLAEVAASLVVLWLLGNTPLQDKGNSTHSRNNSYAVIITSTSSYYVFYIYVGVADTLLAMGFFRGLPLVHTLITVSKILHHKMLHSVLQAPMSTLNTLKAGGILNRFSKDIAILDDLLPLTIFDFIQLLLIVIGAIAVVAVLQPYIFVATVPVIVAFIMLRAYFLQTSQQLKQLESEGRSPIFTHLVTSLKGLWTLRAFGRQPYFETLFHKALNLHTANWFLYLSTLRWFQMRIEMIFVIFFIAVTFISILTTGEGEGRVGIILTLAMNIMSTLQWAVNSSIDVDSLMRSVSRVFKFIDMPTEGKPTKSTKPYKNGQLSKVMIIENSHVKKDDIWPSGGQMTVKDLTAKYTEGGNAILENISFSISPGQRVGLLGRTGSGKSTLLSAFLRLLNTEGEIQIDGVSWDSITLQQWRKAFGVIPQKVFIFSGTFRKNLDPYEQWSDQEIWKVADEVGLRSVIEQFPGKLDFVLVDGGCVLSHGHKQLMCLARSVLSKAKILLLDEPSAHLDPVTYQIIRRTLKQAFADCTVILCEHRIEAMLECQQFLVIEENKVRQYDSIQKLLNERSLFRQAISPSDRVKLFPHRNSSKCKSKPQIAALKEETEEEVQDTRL
# experimentalDetails: HBE2 assay: Ussing chamber assay of CFTR-mediated short-circuit currents
# Type: cell-based
# conditionLabel: 3 μM corrector; F508del/MF-HBE cells; with 44 nM potentiator, 18-24 hours, 20% human serum

compound: CC[C@@H]1CCCN1c1cncc(CN2C(=O)c3cccc(c3)S(=O)(=O)Nc3nc(cc(-c4c(C)cccc4C)n3)OC[C@H]2CCC(C)(C)C)n1
assayedSystem: CFTR (Homo sapiens, UniProt P13569, DEL508-508)
HBE2 Activity at 3 μM (%): +++ (+++ is >60+)

compound: Cc1cccc(C)c1-c1cc2nc(n1)NS(=O)(=O)c1cccc(c1)C(=O)N(Cc1cccc(N(C)C(C)C)n1)[C@H](CCC(C)(C)C)CO2
assayedSystem: CFTR (Homo sapiens, UniProt P13569, DEL508-508)
HBE2 Activity at 3 μM (%): +++ (+++ is >60+)

compound: Cc1cccc(C)c1-c1cc2nc(n1)NS(=O)(=O)c1cccc(c1)C(=O)N(Cc1cncc(N(C)C3CCC3)n1)[C@H](C1CC(C)(C)C1)CO2 (stereo in doubt) [Compound 1896]
assayedSystem: CFTR (Homo sapiens, UniProt P13569, DEL508-508)
HBE2 Activity at 3 μM (%): +++ (+++ is >60+)

====

# assayedSystem: CFTR (Homo sapiens, UniProt P13569, DEL508-508)
# Construct: endogenous in cells; host or cells: primary human bronchial epithelial cells from CF subjects (F508del/MF-HBE), differentiated at air-liquid interface
# experimentalDetails: HBE assay: Ussing chamber assay of CFTR-mediated short-circuit currents
# Assay type: cell-based
# conditionLabel: Table 13; read-out: HBE EC50
pEC50: −log10 of the molar value.
The entries below are paired with their reported pEC50.

Here's what some known entries look like.
compound: Cc1cccc(C)c1-c1cc2nc(n1)NS(=O)(=O)c1cccc(c1)C(=O)N(Cc1ncc(C3CC4(COC4)C3)cn1)[C@H](CC(C)(C)C)CO2
pEC50: > 6.00
//
compound: CCCCN(c1cccc(CN2C(=O)c3cccc(c3)S(=O)(=O)Nc3nc(cc(-c4c(C)cccc4C)n3)OC[C@H]2CC(C)(C)C)n1)C(C)C
pEC50: > 6.00
//
compound: Cc1cccc(C)c1-c1cc2nc(n1)NS(=O)(=O)c1cccc(n1)C(=O)N(Cc1ccc(N(C)CC(C)(C)C)cn1)[C@H](CC(C)(C)C)CO2
pEC50: 5.52 to 6.00
//
compound: Cc1cccc(C)c1-c1cc2nc(n1)NS(=O)(=O)c1cccc(c1)C(=O)N(Cc1ncc(N3CCSCC3)cn1)[C@H](CC(C)(C)C)CO2
pEC50: > 6.00
//
compound: Cc1cccc(C)c1-c1cc2nc(n1)NS(=O)(=O)c1cccc(c1)C(=O)N(Cc1ncc(OC3CC3)cn1)[C@H](CC(C)(C)C)CO2
pEC50: > 6.00

Please fill in: pEC50 reported for `Cc1cccc(C)c1-c1cc2nc(n1)NS(=O)(=O)c1cccc(c1)C(=O)N(Cc1ncc(N3CCOC4(CCC4)C3)cn1)[C@H](CC(C)(C)C)CO2` = > 6.00

Please fill in: pEC50 reported for `Cc1cccc(C)c1-c1cc2nc(n1)NS(=O)(=O)c1cccc(c1)C(=O)N(Cc1nccc(NC(C)C)c1F)[C@H](CC(C)(C)C)CO2` = > 6.00

Please fill in: pEC50 reported for `Cc1cccc(C)c1-c1cc2nc(n1)NS(=O)(=O)c1cccc(c1)C(=O)N(Cc1ccc(C3CC3)cn1)[C@H](CC(C)(C)C)CO2` = > 6.00

Please fill in: pEC50 reported for `Cc1cccc(C)c1-c1cc2nc(n1)NS(=O)(=O)c1cccc(c1)C(=O)N(Cc1cccc(C(=O)N3CCC(C)(C)C3)n1)[C@H](CC(C)(C)C)CO2` = > 6.00

Please fill in: pEC50 reported for `Cc1cccc(C)c1-c1cc2nc(n1)NS(=O)(=O)c1cccc(c1)C(=O)N(Cc1ncc(OC(C)C)cn1)[C@H](CC1(C(F)(F)F)CC1)CO2` = > 6.00

Please fill in: pEC50 reported for `Cc1cccc(C)c1-c1cc2nc(n1)NS(=O)(=O)c1cccc(n1)C(=O)N(Cc1cccc(N(C)C3CC4(CC4)C3)n1)[C@H](CC(C)(C)C)CO2` = > 6.00

Please fill in: pEC50 reported for `Cc1cccc(C)c1-c1cc2nc(n1)NS(=O)(=O)c1cccc(c1)C(=O)N(Cc1ncc(C3CC4(CCC4)C3)cn1)[C@H](CC(C)(C)C)CO2` = > 6.00

Please fill in: pEC50 reported for `Cc1cccc(C)c1-c1cc2nc(n1)NS(=O)(=O)c1cccc(c1)C(=O)N(Cc1ccc(NC(C)C)cn1)[C@H](CC(C)(C)C)CO2` = > 6.00

Please fill in: pEC50 reported for Cc1cccc(C)c1-c1cc2nc(n1)NS(=O)(=O)c1cccc(c1)C(=O)N(Cc1ncc([C@@H](O)CO)cn1)[C@H](CC(C)(C)C)CO2 [Compound 1153] = 5.52 to 6.00

====

# assayedSystem: CFTR (Homo sapiens)
# experimentalDetails: Membrane potential dye, Enteroid Assay A
# Format: cell-based
# conditionLabel: Table 6; chloride transport as % of triple combination control (Enteroid Assay A)
# Description: Base medium (ADF+++) consisted of Advanced DMEM/Ham's F12, 2 mM Glutamax, 10 mM HEPES, […] penicillin/streptomycin. […] Enteroid cells were incubated with test compound in IEMM for 18-24 hours at 37° C., 95% humidity and 5% CO2. […] Chloride transport was initiated by addition of Chloride Free Dye Stimulation Solution and the fluorescence signal was read for 15 min. […]
measurementType: Ent. A Max Activity

molecule: Cc1cccc(C)c1-c1cc2nc(n1)NS(=O)(=O)c1cccc(c1)C(=O)N(CCN1CCOCC1)[C@H](CC(C)C)CO2 [Compound 1108]
Ent. A Max Activity: +++ (+++ is >60%)
--
molecule: Cc1cccc(C)c1-c1cc2nc(n1)NS(=O)(=O)c1cccc(c1)C(=O)N(CCC(C)C)[C@H](CC(C)C)CO2 [Compound 369]
Ent. A Max Activity: +++ (+++ is >60%)
--
molecule: Cc1cccc(C)c1-c1cc2nc(n1)NS(=O)(=O)c1cccc(c1)C(=O)N(CCC1CCCCC1)[C@H](CC(C)C)CO2 [Compound 358]
Ent. A Max Activity: +++ (+++ is >60%)
--
molecule: Cc1cccc(C)c1-c1cc2nc(n1)NS(=O)(=O)c1cccc(c1)C(=O)N(CC1CCOCC1)[C@H](CC(C)C)CO2 [Compound 352]
Ent. A Max Activity: +++ (+++ is >60%)
--
molecule: Cc1cccc(C)c1-c1cc2nc(n1)NS(=O)(=O)c1cccc(c1)C(=O)N(Cc1ccccc1)[C@H](CC(C)C)CO2 [Compound 862]
Ent. A Max Activity: +++ (+++ is >60%)

# ---- query molecule ----
Please fill in: Ent. A Max Activity reported for Cc1cccc(C)c1-c1cc2nc(n1)NS(=O)(=O)c1cccc(c1)C(=O)N(Cc1ccn(C)n1)[C@H](CC(C)C)CO2 [Compound 855] = +++ (+++ is >60%)

====

# assayedSystem: CFTR (Homo sapiens, UniProt P13569, DEL508-508)
# Construct: endogenous in cells; host or cells: primary human bronchial epithelial cells from CF subjects (F508del/MF-HBE), differentiated at air-liquid interface
# experimentalDetails: HBE assay: Ussing chamber assay of CFTR-mediated short-circuit currents
# Assay type: cell-based
# conditionLabel: Table 10; read-out: HBE EC50
pEC50: −log10 of the molar value.
The entries below are paired with their reported pEC50.

`Cc1cccc(C)c1-c1cc2nc(n1)NS(=O)(=O)c1cccc(c1)C(=O)N(C[C@H]1CC[C@@H](N3CCCC3=O)CC1)[C@H](CC(C)(C)C)CO2` tested on CFTR (Homo sapiens, UniProt P13569, DEL508-508) gave pEC50: > 6.00

`Cc1cccc(C)c1-c1cc2nc(n1)NS(=O)(=O)c1cccc(c1)C(=O)N(Cc1ccccc1-c1c(C)n[nH]c1C)[C@H](CC(C)(C)C)CO2` tested on CFTR (Homo sapiens, UniProt P13569, DEL508-508) gave pEC50: > 6.00

Cc1cccc(C)c1-c1cc2nc(n1)NS(=O)(=O)c1cccc(c1)C(=O)N(CC1CCC(N3C[C@@H](C)O[C@@H](C)C3)CC1)[C@H](CC(C)(C)C)CO2 (stereo partly drawn) [Compound 913] tested on CFTR (Homo sapiens, UniProt P13569, DEL508-508) gave pEC50: > 6.00

Cc1cccc(C)c1-c1cc2nc(n1)NS(=O)(=O)c1cccc(c1)C(=O)N(CC1CCC(N3CCOCC3)CC1)[C@H](CC(C)(C)C)CO2 (single isomer, unassigned) [Compound 153] tested on CFTR (Homo sapiens, UniProt P13569, DEL508-508) gave pEC50: > 6.00

`COc1ccc(CN2C(=O)c3cccc(c3)S(=O)(=O)Nc3nc(cc(-c4c(C)cccc4C)n3)OC[C@H]2CC(C)(C)C)cc1` tested on CFTR (Homo sapiens, UniProt P13569, DEL508-508) gave pEC50: > 6.00

`Cc1cccc(C)c1-c1cc2nc(n1)NS(=O)(=O)c1cccc(c1)C(=O)N(Cc1cnc(N3CCOCC3)cn1)[C@H](CC(C)(C)C)CO2` tested on CFTR (Homo sapiens, UniProt P13569, DEL508-508) gave pEC50: > 6.00

`Cc1cccc(C)c1-c1cc2nc(n1)NS(=O)(=O)c1cccc(c1)C(=O)N(Cc1ccc(C3CCCCC3)cc1)[C@H](CC(C)(C)C)CO2` tested on CFTR (Homo sapiens, UniProt P13569, DEL508-508) gave pEC50: 5.52 to 6.00

Cc1cccc(C)c1-c1cc2nc(n1)NS(=O)(=O)c1cccc(c1)C(=O)N(Cc1ccc(-c3ccccc3)cn1)[C@H](CC(C)(C)C)CO2 [Compound 476] tested on CFTR (Homo sapiens, UniProt P13569, DEL508-508) gave pEC50: 5.52 to 6.00
